- SYSTEM TESTED: Glutamyl aminopeptidase (Homo sapiens)
- EXPERIMENT: Inhibition of APA (unknown origin) using GlubetaNA as substrate after 30 mins
MEASURED PROPERTY: pKi
Scale: pKi equals -log10([C]), with [C] in mol/L.

INSERT INTO results (compound, measured_property, val) VALUES
  ('CC[C@H](C)[C@H](NC(=O)C(S)C(N)CCC(=O)O)C(=O)N[C@@H](CC(=O)O)C(=O)O (some centres not stated)', 'pKi', 7.89);

Continue with the compound presented below.
So for CSCCC(N)CS (configuration not stated) , the logged pKi turned out to be 4.76

====

- SYSTEM TESTED: Aminopeptidase N (Sus scrofa)
- Sequence (P15145 whole entry): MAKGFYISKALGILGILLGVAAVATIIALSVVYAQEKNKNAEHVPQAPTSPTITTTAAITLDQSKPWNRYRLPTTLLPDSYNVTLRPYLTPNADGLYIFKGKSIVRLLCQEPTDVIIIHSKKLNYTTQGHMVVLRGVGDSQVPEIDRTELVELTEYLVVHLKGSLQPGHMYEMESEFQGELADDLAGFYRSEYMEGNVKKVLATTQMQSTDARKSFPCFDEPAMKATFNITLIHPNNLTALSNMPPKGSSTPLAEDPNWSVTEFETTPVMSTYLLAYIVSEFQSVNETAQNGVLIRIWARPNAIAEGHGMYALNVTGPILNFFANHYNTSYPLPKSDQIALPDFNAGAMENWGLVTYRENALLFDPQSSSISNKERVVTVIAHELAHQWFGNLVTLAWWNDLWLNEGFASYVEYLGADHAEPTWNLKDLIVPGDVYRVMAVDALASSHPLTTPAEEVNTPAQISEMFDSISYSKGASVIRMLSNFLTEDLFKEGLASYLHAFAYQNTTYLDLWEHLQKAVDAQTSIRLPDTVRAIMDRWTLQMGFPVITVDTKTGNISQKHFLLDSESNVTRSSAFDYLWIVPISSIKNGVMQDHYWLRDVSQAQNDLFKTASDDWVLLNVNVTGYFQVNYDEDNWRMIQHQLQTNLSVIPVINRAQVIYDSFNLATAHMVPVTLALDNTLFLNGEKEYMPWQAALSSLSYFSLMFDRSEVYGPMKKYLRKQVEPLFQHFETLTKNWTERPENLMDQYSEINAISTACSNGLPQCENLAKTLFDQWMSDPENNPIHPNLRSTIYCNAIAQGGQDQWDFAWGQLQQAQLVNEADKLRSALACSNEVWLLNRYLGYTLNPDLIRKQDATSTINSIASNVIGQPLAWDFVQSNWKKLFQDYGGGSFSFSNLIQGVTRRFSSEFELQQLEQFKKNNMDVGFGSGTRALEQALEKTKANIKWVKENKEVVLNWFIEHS
- EXPERIMENT: Inhibition of APN in porcine kidney microsomes using L-leucine-p-nitroanilide as substrate preincubated for 30 mins followed by substrate addition measured after 15 mins by UV-visible spectrophotometric method
MEASURED PROPERTY: IC50
Param answer (str): number followed by unit.

INSERT INTO assay_data (chemical_string, val) VALUES
  ('CC(C)C[C@@H](NC(=O)[C@H](Cc1ccccc1)NC(=O)[C@@H](O)CN)C(=O)O', '12.2 µM');

The compound listed as CC(C)C[C@@H](NC(=O)[C@H](Cc1ccc(O)cc1)NC(=O)[C@@H](O)CN)C(=O)O shows IC50 equal to 2.51 µM

====

- SYSTEM TESTED: Aminopeptidase N (Homo sapiens)
MEASURED PROPERTY: pKi
Scale: pKi equals -log10([C]), with [C] in mol/L.

Hey, Aminopeptidase N (Homo sapiens) data for CCCCC[C@H](CC(=O)NO)C(=O)N[C@H](C(=O)N1CCC[C@H]1CO)C(C)C [ACTINONIN] : pKi came out at 6.77

====

Record: IC50 reported on UniProt P15144.
State the answer as a number, implicitly in nM.

Entry CC(C)CC(N)B1OC(C)(C)C(C)(C)O1 (centres undefined) ; assay system UniProt P15144; IC50 recorded at 25

Param item: CC(N)B1OC(C)(C)C(C)(C)O1 (centres undefined) ; param system: UniProt P15144; output IC50: 40

IC50 of CC1(C)OB(C(N)Cc2ccccc2)OC1(C)C (centres undefined) , assay on UniProt P15144, is 20

Summary: CC(C)C[C@H](C(=O)N[C@H](C(=O)OC1CCCC1)c1ccccc1)[C@H](O)C(=O)NO , UniProt P15144, IC50 = 220

====

- EXPERIMENT: Solubility in PBS
- Type: physicochemical
MEASURED PROPERTY: solubility (mM)
Numeric only. Scale: mM

INSERT INTO assay_data (molecule, endpoint_unit, val) VALUES
  ('CC(C)CC(NC(=O)C(O)C(N)Cc1ccccc1)C(=O)NC(CO)C(=O)NCc1ccccc1 (configuration not stated)', 'mM', 85.2);

Now turn to the next molecule.
Entry CC(C)C[C@H](NC(=O)[C@@H](O)[C@H](N)Cc1ccccc1)C(=O)O ; solubility = 35.7

====

- Tested on: MDA-MB-231
- EXPERIMENT: Antiproliferative activity against human MDA-MB-231 cells after 48 hrs by MTT assay
- Assay type: functional, cell-based
- TEST SETTINGS: MDA-MB-231, 48 h
MEASURED PROPERTY: IC50 (µM)
Numbers only; they are read as µM.

Measured IC50 of CC(C)CC(NC(=O)C(O)C(N)Cc1ccccc1)C(=O)NC(CO)C(=O)NCc1ccccc1 (stereo unspecified) : 260

====

- SYSTEM TESTED: Glutamyl aminopeptidase (Homo sapiens, UniProt Q07075)
- Sequence (Q07075 whole entry): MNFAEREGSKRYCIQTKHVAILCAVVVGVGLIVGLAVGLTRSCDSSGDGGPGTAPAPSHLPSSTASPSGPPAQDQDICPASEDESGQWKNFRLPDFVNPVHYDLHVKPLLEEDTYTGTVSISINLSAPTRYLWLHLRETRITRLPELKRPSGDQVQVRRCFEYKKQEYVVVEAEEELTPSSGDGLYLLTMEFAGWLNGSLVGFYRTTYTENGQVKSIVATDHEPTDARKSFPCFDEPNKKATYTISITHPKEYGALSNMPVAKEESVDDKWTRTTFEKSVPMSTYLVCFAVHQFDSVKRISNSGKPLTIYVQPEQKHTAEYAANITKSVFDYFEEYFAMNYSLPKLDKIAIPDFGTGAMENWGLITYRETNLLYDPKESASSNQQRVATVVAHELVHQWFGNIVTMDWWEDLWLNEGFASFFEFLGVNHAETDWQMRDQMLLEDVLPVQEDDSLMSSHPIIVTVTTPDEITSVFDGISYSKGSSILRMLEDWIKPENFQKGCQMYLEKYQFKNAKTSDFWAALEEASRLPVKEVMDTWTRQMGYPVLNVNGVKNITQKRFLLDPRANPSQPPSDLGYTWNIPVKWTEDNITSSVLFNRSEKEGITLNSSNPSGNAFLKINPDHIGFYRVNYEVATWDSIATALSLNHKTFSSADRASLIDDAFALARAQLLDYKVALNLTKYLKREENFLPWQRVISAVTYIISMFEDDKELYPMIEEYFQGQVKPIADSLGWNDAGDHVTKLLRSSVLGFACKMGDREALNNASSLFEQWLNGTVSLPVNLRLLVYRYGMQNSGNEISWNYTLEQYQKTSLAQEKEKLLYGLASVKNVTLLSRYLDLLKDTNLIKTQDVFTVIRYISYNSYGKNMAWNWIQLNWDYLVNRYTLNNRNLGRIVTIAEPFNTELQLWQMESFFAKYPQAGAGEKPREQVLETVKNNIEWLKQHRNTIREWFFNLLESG
- EXPERIMENT: Inhibition of APA (unknown origin) using GluNA as substrate
Catalogue of molecules with associated Ki
Write it as a number; the unit µM goes unstated.

INSERT INTO results (molecule, system_tested, endpoint_unit, val) VALUES
  ('C[C@@](Cc1ccccc1)(NC(=O)[C@H](Cc1ccccc1)CP(=O)(O)C(N)Cc1ccccc1)C(=O)O (some centres not stated)', 'Glutamyl aminopeptidase (Homo sapiens, UniProt Q07075)', 'µM', 40);

Here is the next item to consider.
Ki reading for CC(N)P(=O)(O)C[C@@H](Cc1ccccc1)C(=O)N[C@@](C)(Cc1ccccc1)C(=O)O (some centres not stated) : 0.13

====

Consider the following molecules and their measured pKi readings.
- SYSTEM TESTED: Aminopeptidase N (Sus scrofa)
- EXPERIMENT: Inhibition of pig APN
A value of pKi is the negative decimal logarithm of a concentration given in moles per litre.

INSERT INTO assay_data (molecule, val) VALUES
  ('N#Cc1cc(Cc2ccc3c(ccc4ccccc43)c2C#N)cc2c1ccc1ccccc12', 5.54),
  ('Cc1ccc(C(=O)NN/C(=N/S(=O)(=O)c2ccc(-n3nc(C(F)(F)F)cc3-c3cccs3)cc2)N2CCCC2)cc1', 5.71),
  ('NC1COc2ccccc2CC1=O (centres undefined)', 6.00);

Proceed to the following item.
Entry C(=C1/c2ccccc2-c2c1ccc1ccccc21)/c1cc2c3c(cccc3c1)-c1ccccc1-2 : pKi on Aminopeptidase N (Sus scrofa) = 5.79

====

- SYSTEM TESTED: Aminopeptidase N (Homo sapiens, UniProt P15144)
- Sequence (P15144 whole entry): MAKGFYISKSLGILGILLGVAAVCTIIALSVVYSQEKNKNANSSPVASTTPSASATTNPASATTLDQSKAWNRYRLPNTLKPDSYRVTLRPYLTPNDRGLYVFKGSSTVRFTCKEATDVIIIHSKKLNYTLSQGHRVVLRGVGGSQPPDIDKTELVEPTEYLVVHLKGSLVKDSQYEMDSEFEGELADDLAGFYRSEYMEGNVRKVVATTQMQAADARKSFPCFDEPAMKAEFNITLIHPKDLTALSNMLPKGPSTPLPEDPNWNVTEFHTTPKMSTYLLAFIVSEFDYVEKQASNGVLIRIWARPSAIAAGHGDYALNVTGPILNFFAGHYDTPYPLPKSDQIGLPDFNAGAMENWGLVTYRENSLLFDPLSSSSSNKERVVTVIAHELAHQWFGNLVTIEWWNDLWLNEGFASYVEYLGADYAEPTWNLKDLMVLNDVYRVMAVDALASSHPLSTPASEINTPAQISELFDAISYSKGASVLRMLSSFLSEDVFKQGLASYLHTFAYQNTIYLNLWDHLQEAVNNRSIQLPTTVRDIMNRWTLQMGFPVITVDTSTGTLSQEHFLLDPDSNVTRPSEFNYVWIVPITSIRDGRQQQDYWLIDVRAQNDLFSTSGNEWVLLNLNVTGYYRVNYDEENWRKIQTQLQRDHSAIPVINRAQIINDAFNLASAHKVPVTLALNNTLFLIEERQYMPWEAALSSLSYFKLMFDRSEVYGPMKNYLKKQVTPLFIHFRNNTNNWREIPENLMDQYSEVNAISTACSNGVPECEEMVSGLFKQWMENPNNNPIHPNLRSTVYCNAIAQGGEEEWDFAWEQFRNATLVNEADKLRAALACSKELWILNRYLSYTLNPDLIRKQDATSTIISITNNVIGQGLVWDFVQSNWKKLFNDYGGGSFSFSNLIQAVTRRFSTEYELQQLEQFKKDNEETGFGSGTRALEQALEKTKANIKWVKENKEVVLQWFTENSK
- EXPERIMENT: Competitive inhibition of aminopeptidase-M (unknown origin)
MEASURED PROPERTY: IC50

So for CCCCC[C@H](CC(=O)NO)C(=O)N[C@H](C(=O)N1CCC[C@H]1CO)C(C)C , the logged IC50 turned out to be 400 nM

====

- SYSTEM TESTED: Leukotriene A-4 hydrolase (Homo sapiens)
- Sequence (P09960 whole entry): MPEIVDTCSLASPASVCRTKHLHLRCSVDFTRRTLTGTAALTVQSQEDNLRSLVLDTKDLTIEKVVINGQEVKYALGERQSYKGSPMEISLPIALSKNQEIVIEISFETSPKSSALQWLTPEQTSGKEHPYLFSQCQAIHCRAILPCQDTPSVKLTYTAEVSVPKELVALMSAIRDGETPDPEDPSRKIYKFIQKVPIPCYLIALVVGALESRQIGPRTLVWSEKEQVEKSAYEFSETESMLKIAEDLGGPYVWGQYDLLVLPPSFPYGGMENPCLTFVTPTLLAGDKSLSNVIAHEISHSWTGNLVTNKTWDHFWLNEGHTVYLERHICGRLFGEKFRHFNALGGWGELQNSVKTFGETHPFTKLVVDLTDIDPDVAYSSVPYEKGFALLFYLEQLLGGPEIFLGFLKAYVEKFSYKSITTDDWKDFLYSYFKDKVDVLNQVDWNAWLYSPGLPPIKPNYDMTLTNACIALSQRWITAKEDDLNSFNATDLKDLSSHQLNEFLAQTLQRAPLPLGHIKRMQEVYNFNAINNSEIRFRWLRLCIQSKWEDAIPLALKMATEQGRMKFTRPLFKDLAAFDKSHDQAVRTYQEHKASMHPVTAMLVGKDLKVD
- EXPERIMENT: Inhibition of full-length recombinant C-terminal FLAG-tagged human leukotriene A4 hydrolase expressed in baculovirus-infected insect cells using Arg-AMC as substrate after 1 hr by fluorescence assay
MEASURED PROPERTY: pIC50
Worth noting: pIC50 values are minus log10 of concentrations stated in mol/L.

Record CC(C)C[C@H](C(=O)N[C@H](C(=O)O)c1ccccc1)[C@H](O)C(=O)NO . Reported pIC50: 8.10
